target: EGFR L858R (Homo sapiens, UniProt P00533, L858R); experiment: HTRF-based EGFR biochemical assay, L858R; conditions: 100 μM ATP, enzyme 0.1 nM
Sequence (P00533 25-1210 L858R): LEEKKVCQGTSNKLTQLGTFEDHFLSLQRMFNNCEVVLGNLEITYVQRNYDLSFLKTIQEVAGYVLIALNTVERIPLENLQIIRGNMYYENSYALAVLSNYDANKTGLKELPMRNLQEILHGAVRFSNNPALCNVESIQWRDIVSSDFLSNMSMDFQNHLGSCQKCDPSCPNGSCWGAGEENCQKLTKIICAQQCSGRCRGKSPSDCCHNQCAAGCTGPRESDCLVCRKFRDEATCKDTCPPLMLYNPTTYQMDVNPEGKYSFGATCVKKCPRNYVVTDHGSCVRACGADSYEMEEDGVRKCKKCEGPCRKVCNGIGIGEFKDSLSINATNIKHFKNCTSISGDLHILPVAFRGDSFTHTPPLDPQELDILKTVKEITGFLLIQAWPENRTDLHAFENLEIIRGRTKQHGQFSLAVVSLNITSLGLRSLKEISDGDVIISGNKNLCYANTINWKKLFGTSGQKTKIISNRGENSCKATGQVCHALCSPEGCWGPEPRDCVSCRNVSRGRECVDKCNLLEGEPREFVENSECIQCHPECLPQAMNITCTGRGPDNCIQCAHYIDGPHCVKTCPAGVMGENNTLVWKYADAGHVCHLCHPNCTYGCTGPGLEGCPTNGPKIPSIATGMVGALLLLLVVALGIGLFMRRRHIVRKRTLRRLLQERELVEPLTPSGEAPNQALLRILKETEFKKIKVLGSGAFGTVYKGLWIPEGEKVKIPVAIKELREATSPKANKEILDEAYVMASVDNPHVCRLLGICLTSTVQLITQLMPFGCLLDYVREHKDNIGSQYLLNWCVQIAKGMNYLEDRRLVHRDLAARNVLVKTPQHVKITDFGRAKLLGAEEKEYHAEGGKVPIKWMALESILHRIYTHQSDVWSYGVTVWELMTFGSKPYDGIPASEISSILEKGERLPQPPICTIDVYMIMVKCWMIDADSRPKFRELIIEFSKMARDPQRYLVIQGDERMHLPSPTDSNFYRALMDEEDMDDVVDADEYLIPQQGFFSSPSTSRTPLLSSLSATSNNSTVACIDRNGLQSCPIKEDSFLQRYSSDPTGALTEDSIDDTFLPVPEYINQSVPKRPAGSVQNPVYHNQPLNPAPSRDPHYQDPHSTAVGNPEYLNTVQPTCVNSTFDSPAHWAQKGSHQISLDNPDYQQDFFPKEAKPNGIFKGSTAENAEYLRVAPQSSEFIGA
measurement_type: IC50 (µM)
A number alone suffices; assume µM.

Form field: reported IC50 of `C=CC(=O)Nc1ccc(OC)c(Nc2cc(-c3[nH]c(SC)nc3-c3cccc(NC(=O)c4ccccc4CN4Cc5ccccc5C4=O)c3)ccn2)c1`
0.011

Form field: reported IC50 of `CSc1nc(-c2cccc(NC(=O)Cc3c(F)cccc3F)c2)c(-c2ccnc(NC(C)=O)c2)[nH]1`
1.3

Form field: reported IC50 of `CSc1nc(-c2cccc(NC(=O)Nc3ccc(Br)cc3)c2)c(-c2ccnc(NC(C)=O)c2)[nH]1`
6.43

Attribution: patent US20230406838A1
